study target: metabotropic glutamate receptor mGluR2 (Rattus norvegicus, UniProt P31421)
Construct: expressed in transfected cells
Sequence (P31421 19-872): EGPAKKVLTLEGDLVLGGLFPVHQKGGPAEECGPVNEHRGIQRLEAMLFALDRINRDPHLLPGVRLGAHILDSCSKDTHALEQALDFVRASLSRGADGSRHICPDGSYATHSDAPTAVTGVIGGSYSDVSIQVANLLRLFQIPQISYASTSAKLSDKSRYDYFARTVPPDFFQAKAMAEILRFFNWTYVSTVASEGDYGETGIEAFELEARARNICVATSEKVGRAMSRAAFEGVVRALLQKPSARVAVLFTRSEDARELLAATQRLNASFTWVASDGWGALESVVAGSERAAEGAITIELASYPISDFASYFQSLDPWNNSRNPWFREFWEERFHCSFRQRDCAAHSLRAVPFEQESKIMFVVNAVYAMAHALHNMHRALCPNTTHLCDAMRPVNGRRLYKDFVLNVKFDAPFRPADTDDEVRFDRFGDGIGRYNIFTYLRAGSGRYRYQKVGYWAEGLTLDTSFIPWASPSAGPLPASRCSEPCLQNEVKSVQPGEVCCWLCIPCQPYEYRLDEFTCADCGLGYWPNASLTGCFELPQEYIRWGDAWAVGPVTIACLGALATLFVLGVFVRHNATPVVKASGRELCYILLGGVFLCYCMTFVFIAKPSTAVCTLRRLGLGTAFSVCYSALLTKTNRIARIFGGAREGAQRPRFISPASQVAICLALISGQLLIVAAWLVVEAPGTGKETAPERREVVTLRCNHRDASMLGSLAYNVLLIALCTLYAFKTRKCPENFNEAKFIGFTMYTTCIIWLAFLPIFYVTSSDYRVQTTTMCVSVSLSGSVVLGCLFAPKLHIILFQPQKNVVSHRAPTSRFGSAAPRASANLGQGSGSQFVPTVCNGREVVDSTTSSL
procedure summary: Antagonistic effect on glutamic acid-induced inhibition of forskolin-stimulated cAMP accumulation in CHO cells stably expressing mGluR2
Assay type: cell-based
run parameters: 30 μM glutamic acid, 10^-5 M forskolin
Parameter: IC50. Scope: all listed entries.
# value in µM; strip the unit string

As a guide, the following entries are already answered.
molecule	study target	recorded metric	meas value
NC1(C(=O)O)C(OCc2ccccc2)CC2C1C2(F)C(=O)O (stereo not shown)	metabotropic glutamate receptor mGluR2 (Rattus norvegicus, UniProt P31421)	IC50	0.131
NC1(C(=O)O)C(OCc2ccc3ccccc3c2)CC2C1C2(F)C(=O)O (stereo not shown)	metabotropic glutamate receptor mGluR2 (Rattus norvegicus, UniProt P31421)	IC50	0.0227
NC1(C(=O)O)C(OC(c2ccccc2)c2ccccc2)CC2C1C2(F)C(=O)O (stereo not shown)	metabotropic glutamate receptor mGluR2 (Rattus norvegicus, UniProt P31421)	IC50	0.0244

Next, consider the following molecule.
Exercise: Fill in the recorded IC50 for this molecule, with metabotropic glutamate receptor mGluR2 (Rattus norvegicus, UniProt P31421) as test system: NC1(C(=O)O)C(OCc2ccc(F)c(F)c2)CC2C1C2(F)C(=O)O (stereo not shown)
Key: 0.0408

----------
Readings of IC50 for the listed compounds
study target: metabotropic glutamate receptor mGluR2 (Rattus norvegicus)
Construct: expressed in transfected cells
procedure summary: Antagonistic effect on glutamic acid-induced inhibition of forskolin-stimulated cAMP accumulation in CHO cells stably expressing mGluR2
Assay type: cell-based
run parameters: read-out: IC50, concentration required for 50% antagonism of inhibitory effect of 30 μM glutamic acid on 10^-5 M forskolin-stimulated cAMP level
Hi! Could you send only the number? It should be in nM, unit omitted.

Examples from the recorded data:
N[C@]1(C(=O)O)[C@H]2[C@@H](C[C@H]1OCc1ccc(Cl)cc1)[C@]2(F)C(=O)O 29.1
CO[C@@H]1C[C@@H]2[C@H]([C@]1(N)C(=O)O)[C@@]2(F)C(=O)O 229

Now consider the entry below.
Exercise: Entry N[C@]1(C(=O)O)[C@H]2[C@@H](C[C@H]1OCc1ccc(Cl)c(Cl)c1)[C@]2(F)C(=O)O has what IC50?
Key: 20

----------
We begin with a simple list: items and their reported melting point.

compound	melting point
Nc1cccc(CO[C@@H]2C[C@@H]3[C@H]([C@]2(N)C(=O)O)[C@@]3(F)C(=O)O)c1 (hydrate or solvate)	> 190 °C
CC(O[C@@H]1C[C@@H]2[C@H]([C@]1(N)C(=O)O)[C@@]2(F)C(=O)O)c1ccc2ccccc2c1 (relative stereo) [58]	> 188 °C
NC1(C(=O)O)C(OCc2ccc3ccccc3c2)CC2C1C2(F)C(=O)O (centres unmarked) [Compound 42]	> 210 °C
N[C@]1(C(=O)O)[C@H]2[C@@H](C[C@H]1OCc1ccc(Cl)cc1)[C@]2(F)C(=O)O [Compound 22]	> 220 °C
C=CCO[C@@H]1C[C@@H]2[C@H]([C@]1(N)C(=O)O)[C@@]2(F)C(=O)O [Compound 5]	> 248 °C

Exercise: Which value of melting point has been reported for CCCC(C)OC1C[C@@H]2[C@@H]([C@@]2(F)C(=O)O)[C@]1(N)C(=O)O (some centres unmarked) [Compound 44] in the records?
Key: > 170 °C

Exercise: Consider the compound shown here: CO[C@@H]1C[C@@H]2[C@H]([C@]1(N)C(=O)O)[C@@]2(F)C(=O)O [Compound 1] What is its recorded melting point?
Key: > 199 °C

Exercise: Quick one: melting point of COC1C[C@@H]2[C@@H]([C@@]2(F)C(=O)O)[C@]1(N)C(=O)O (some centres unmarked) [Compound 2] ?
Key: > 171 °C

Where these numbers come from: patent US7157594B2
